Molecular target: Beta-secretase 1 (Homo sapiens)
Sequence (P56817 whole entry): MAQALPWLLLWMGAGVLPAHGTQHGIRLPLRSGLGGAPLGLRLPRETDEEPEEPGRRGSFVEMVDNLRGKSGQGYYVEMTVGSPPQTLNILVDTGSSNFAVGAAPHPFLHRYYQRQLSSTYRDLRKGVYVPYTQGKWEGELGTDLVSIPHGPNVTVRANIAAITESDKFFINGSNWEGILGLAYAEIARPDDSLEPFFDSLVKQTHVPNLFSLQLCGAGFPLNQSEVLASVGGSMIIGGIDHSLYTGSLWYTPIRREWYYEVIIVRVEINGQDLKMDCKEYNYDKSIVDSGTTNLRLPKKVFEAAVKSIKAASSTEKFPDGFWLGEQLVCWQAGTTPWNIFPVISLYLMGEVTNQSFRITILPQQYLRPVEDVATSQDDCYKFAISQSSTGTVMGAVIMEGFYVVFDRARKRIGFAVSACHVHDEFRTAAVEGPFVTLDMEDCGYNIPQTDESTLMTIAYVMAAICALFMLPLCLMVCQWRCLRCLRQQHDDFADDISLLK
Experiment: Inhibition of human recombinant BACE1 expressed in Escherichia coli BL21(DE3) using Biotin-XSEVNLDAEFRHDSGC-Eu as substrate after 3 hrs by HTRF assay
pIC50: −log10 of the molar value.
reported-metric: pIC50

Sample answers from the record:
[[record]]
chemical_smiles = "Cn1c(N)nc([C@H]2C[C@H]2c2cccc(CCc3ccccc3)c2)cc1=O"
system = "Beta-secretase 1 (Homo sapiens)"
reported_metric = "pIC50"
assay_value = 4.65

[[record]]
chemical_smiles = "CCOc1cccc(-c2cccc([C@@H]3C[C@@H]3c3cc(=O)n(C)c(N)n3)c2)c1"
system = "Beta-secretase 1 (Homo sapiens)"
reported_metric = "pIC50"
assay_value = 4.40

[[record]]
chemical_smiles = "CSc1cccc(-c2cccc([C@@H]3C[C@@H]3c3cc(=O)n(C)c(N)n3)c2)c1"
system = "Beta-secretase 1 (Homo sapiens)"
reported_metric = "pIC50"
assay_value = 4.32

[[record]]
chemical_smiles = "Cc1cccc(-c2cccc([C@@H]3C[C@@H]3c3cc(=O)n(C)c(N)n3)c2)c1"
system = "Beta-secretase 1 (Homo sapiens)"
reported_metric = "pIC50"
assay_value = 4.13

[[record]]
chemical_smiles = "COc1cccc(CCc2cccc([C@@H]3C[C@@H]3c3cc(=O)n(C)c(N)n3)c2)c1"
system = "Beta-secretase 1 (Homo sapiens)"
reported_metric = "pIC50"
assay_value = 4.00

[[record]]
chemical_smiles = "Cn1c(N)nc([C@H]2C[C@H]2c2cccc(-c3cccc(F)c3)c2)cc1=O"
system = "Beta-secretase 1 (Homo sapiens)"
reported_metric = "pIC50"
assay_value = 4.14

[[record]]
chemical_smiles = "Cc1ccccc1CCc1cccc([C@@H]2C[C@@H]2c2cc(=O)n(C)c(N)n2)c1"
system = "Beta-secretase 1 (Homo sapiens)"
reported_metric = "pIC50"
assay_value = 3.92


I = COc1cncc(-c2cccc([C@@H]3C[C@@H]3c3cc(=O)n(C)c(N)n3)c2)n1
II = COc1ccc(-c2cccc([C@@H]3C[C@@H]3c3cc(=O)n(C)c(N)n3)c2)cc1
For I and II , which recorded pIC50 is lower? Selection: enter the item's label.
I
